- System: canarygrass (Phalaris minor)
- Assay summary: Test D controlled growth environment herbicide test, pre- and postemergence
- Type: in vivo
- Experimental context: Postemergence, 125 g ai/ha; visual rating on scale 0 (no effect) to 100 (complete control), 14 to 21 d
Reported Plant response rating, Canarygrass values for the following compounds.
Measure: Plant response rating, Canarygrass

>>> recorded_value("Cc1ccc2ccccc2c1-c1c(O)c(Br)nn(C)c1=O [Compound 23]")
85
>>> recorded_value("Cc1ccc2sc(C)c(-c3c(OC(=O)OC(C)C)c(C)nn(C)c3=O)c2c1 [Compound 66]")
70
>>> recorded_value("Cc1nn(C)c(=O)c(-c2c(C)sc3ccc(Br)cc23)c1O [Compound 22]")
40
>>> recorded_value("CCCC(=O)Oc1c(C)nn(C)c(=O)c1-c1c(C)sc2ccc(C)cc12 [Compound 105]")
75
>>> recorded_value("Cc1cc2ccccc2c(-c2c(O)c(C)nn(C)c2=O)c1C [Compound 34]")
75
>>> recorded_value("COC(=O)Oc1c(C)nn(C)c(=O)c1-c1c(C)sc2ccc(C)cc12 [Compound 80]")
85

* * *

- Tested on: blackgrass (Alopecurus myosuroides)
- Assay summary: Test C greenhouse herbicide test, pre- and postemergence
- Assay type: in vivo
- Experimental context: Postemergence, 31 g ai/ha; 0 to 100 scale (0 no effect, 100 complete control)
- Description: […]
Reported values of Blackgrass plant response rating for individual entries
Measure: Blackgrass plant response rating

>>> recorded_value("Cc1ccc2ccccc2c1-c1c(O)c(I)nn(C)c1=O [Compound 29]")
40
>>> recorded_value("Cc1sc2ccccc2c1-c1c(O)c(Cl)nn(C)c1=O [Compound 89]")
0
>>> recorded_value("Cc1ccc2sc(C)c(-c3c(OC(=O)C(C)(C)C)c(C)nn(C)c3=O)c2c1 [Compound 26]")
50
>>> recorded_value("Cc1ccc2ccccc2c1-c1c(OC(=O)OC(C)C)c(C)nn(C)c1=O [Compound 72]")
60
>>> recorded_value("Cc1nn(C)c(=O)c(-c2ccc(Br)c3ccccc23)c1O [Compound 75]")
5
>>> recorded_value("Cn1nc(Br)c(O)c(-c2cccc3ccccc23)c1=O [Compound 20]")
5
>>> recorded_value("Cc1nn(C)c(=O)c(-c2cccc3ccccc23)c1O [Compound 11]")
5
>>> recorded_value("Cc1ccc2sc(Br)c(-c3c(O)c(C)nn(C)c3=O)c2c1 [Compound 79]")
5
>>> recorded_value("CC(=O)Oc1c(C)nn(C)c(=O)c1-c1c(C)cc(C)c2ccccc12 [Compound 99]")
20

* * *

Plant response rating, Barnyardgrass by entry:
- System: barnyardgrass (Echinochloa crus-galli)
- Assay summary: Test C greenhouse herbicide test, pre- and postemergence
- Assay type: in vivo
- Experimental context: Preemergence, 125 g ai/ha; scale 0 to 100, 0 is no effect, 100 is complete control
Measure: Plant response rating, Barnyardgrass

>>> recorded_value("CCc1sc2c(C)cc(C)cc2c1-c1c(O)c(C)nn(C)c1=O")
100
>>> recorded_value("CC(=O)Oc1c(C)nn(C)c(=O)c1-c1c(C)sc2ccc(C(F)(F)F)cc12")
35
>>> recorded_value("CCCC(=O)Oc1c(C)nn(C)c(=O)c1-c1c(CC)sc2ccc(C)cc12")
80
>>> recorded_value("COC(=O)Oc1c(C)nn(C)c(=O)c1-c1ccc(Br)c2ccccc12")
75
>>> recorded_value("Cc1nn(C)c(=O)c(-c2ccc(Cl)c3ccccc23)c1O")
75
>>> recorded_value("Cc1ccc2ccccc2c1-c1c(OC(=O)OC(C)C)c(C)nn(C)c1=O")
55
>>> recorded_value("Cc1ccc2ccccc2c1-c1c(O)c(I)nn(C)c1=O")
80
>>> recorded_value("Cc1nn(C)c(=O)c(-c2cccc3ccccc23)c1O")
10

* * *

- System: buckwheat, wild (wild buckwheat, Polygonum convolvulus)
- Assay summary: Test D controlled growth environment herbicide test, pre- and postemergence
- Format: in vivo
- Experimental context: postemergence, 62 g ai/ha; scale 0 to 100, 0 no effect, 100 complete control
Measure: Plant response rating, Buckwheat, Wild

>>> recorded_value("Cc1nn(C)c(=O)c(-c2cccc3ccc(Br)cc23)c1O")
100
>>> recorded_value("Cc1nn(C)c(=O)c(-c2c(C)sc3c(C)cc(Cl)cc23)c1O")
100
>>> recorded_value("CC(=O)Oc1c(C)nn(C)c(=O)c1-c1c(C)sc2ccc(Cl)cc12")
100
>>> recorded_value("CCCC(=O)Oc1c(C)nn(C)c(=O)c1-c1c(C)sc2ccc(C)cc12")
95
>>> recorded_value("Cc1ccc2ccccc2c1-c1c(OC(=O)OC(C)C)c(C)nn(C)c1=O")
100

* * *

- Test system: barnyardgrass (Echinochloa crus-galli)
- Assay summary: Test C greenhouse herbicide test, pre- and postemergence
- Format: in vivo
- Experimental context: Preemergence, 31 g ai/ha; scale 0 to 100, 0 is no effect, 100 is complete control
Plant response rating, Barnyardgrass values for the compounds below.
Measure: Plant response rating, Barnyardgrass

>>> recorded_value("Cc1ccc2ccccc2c1-c1c(O)c(I)nn(C)c1=O")
10
>>> recorded_value("Cc1nn(C)c(=O)c(-c2ccc(Cl)c3ccccc23)c1O")
20
>>> recorded_value("Cc1cc(C)c2sc(C)c(-c3c(O)c(C)nn(C)c3=O)c2c1")
35
>>> recorded_value("CC(=O)Oc1c(C)nn(C)c(=O)c1-c1c(C)cc(C)c2ccccc12")
5
>>> recorded_value("Cc1cc(C)c2ccccc2c1-c1c(O)c(C)nn(C)c1=O")
80
>>> recorded_value("Cn1nc(Br)c(O)c(-c2cccc3ccccc23)c1=O")
5

* * *

Plant response rating, Ryegrass, Italian reference
- System: ryegrass, Italian (Italian ryegrass, Lolium multiflorum)
- Assay summary: Test C greenhouse herbicide test, pre- and postemergence
- Format: in vivo
- Experimental context: Postemergence, 125 g ai/ha; scale 0 to 100, 0 is no effect, 100 is complete control
Measure: Plant response rating, Ryegrass, Italian

>>> recorded_value("Cc1ccc2sc(C)c(-c3c(OC(=O)OC(C)C)c(C)nn(C)c3=O)c2c1")
85
>>> recorded_value("CCC(=O)Oc1c(C)nn(C)c(=O)c1-c1ccc(F)c2ccccc12")
95
>>> recorded_value("CC(=O)Oc1c(C)nn(C)c(=O)c1-c1c(C)cc(C)c2ccccc12")
95
>>> recorded_value("Cc1ccc2ccccc2c1-c1c(O)c(C(F)(F)F)nn(C)c1=O")
25
>>> recorded_value("Cc1cc2ccccc2c(-c2c(O)c(C)nn(C)c2=O)c1C")
90
>>> recorded_value("Cc1ccc2ccccc2c1-c1c(O)c(I)nn(C)c1=O")
85
>>> recorded_value("Cn1nc(Br)c(O)c(-c2cccc3ccccc23)c1=O")
80
>>> recorded_value("Cc1nn(C)c(=O)c(-c2c(C)sc3ccc(Br)cc23)c1O")
90
>>> recorded_value("COC(=O)Oc1c(C)nn(C)c(=O)c1-c1c(C)sc2ccc(C)cc12")
85
>>> recorded_value("CCC(=O)Oc1c(C)nn(C)c(=O)c1-c1c(C)ccc2ccccc12")
85

* * *

Below, each entry is listed alongside its reported Plant response rating, Morningglory.
- Tested on: morningglory (Ipomoea coccinea)
- Assay summary: Test C greenhouse herbicide test, pre- and postemergence
- Type: in vivo
- Experimental context: Postemergence, 31 g ai/ha; scale 0 to 100 (0 no effect, 100 complete control)
Measure: Plant response rating, Morningglory

>>> recorded_value("Cc1ccc2ccccc2c1-c1c(O)c(C(F)(F)F)nn(C)c1=O")
100
>>> recorded_value("Cc1ccc2ccc(Cl)cc2c1-c1c(O)c(C)nn(C)c1=O")
98
>>> recorded_value("COC(=O)Oc1c(C)nn(C)c(=O)c1-c1ccc(Br)c2ccccc12")
95
>>> recorded_value("Cc1nn(C)c(=O)c(-c2cccc3ccc(Br)cc23)c1O")
95

* * *

- System: barnyardgrass (Echinochloa crus-galli)
- Assay summary: Test A greenhouse herbicide test, pre- and postemergence
- Assay type: in vivo
- Experimental context: Preemergence, 125 g ai/ha; 0 to 100 scale where 0 is no effect and 100 is complete control
- From the text: […]
# if measured Barnyardgrass plant response rating < 20: class 1  # else: class 0

>>> label("Cc1nn(C)c(=O)c(-c2c(C)sc3c(C)cc(Cl)cc23)c1O")
"class 0"
>>> label("Cn1ncc(O)c(-c2cccc3ccccc23)c1=O")
"class 1"
>>> label("Cc1cc(C)c2ccccc2c1-c1c(O)c(C)nn(C)c1=O")
"class 0"
>>> label("COc1nn(C)c(=O)c(-c2c(C(F)F)ccc3ccccc23)c1O")
"class 1"
>>> label("Cc1nn(C)c(=O)c(-c2cccc3ccc(OC(F)F)cc23)c1O")
"class 1"
>>> label("CCC(=O)Oc1c(C)nn(C)c(=O)c1-c1ccc(Cl)c2ccccc12")
"class 0"
>>> label("Cc1ccc2ccccc2c1-c1c(O)c(Br)nn(C)c1=O")
"class 0"
>>> label("CCOc1ccc2oc(CC)c(-c3c(O)c(C)nn(C)c3=O)c2c1")
"class 1"
>>> label("COC(=O)Oc1c(OC)nn(C)c(=O)c1-c1c(C)ccc2ccccc12")
"class 1"
>>> label("Cc1nn(C)c(=O)c(-c2c(C)sc3ccc(Br)cc23)c1O")
"class 1"
